Attribution: PubChem BioAssay AID2373

Biological target: Cell division control protein 42 homolog (Homo sapiens) (UniProt P60953)
Sequence (P60953 whole entry, looked up): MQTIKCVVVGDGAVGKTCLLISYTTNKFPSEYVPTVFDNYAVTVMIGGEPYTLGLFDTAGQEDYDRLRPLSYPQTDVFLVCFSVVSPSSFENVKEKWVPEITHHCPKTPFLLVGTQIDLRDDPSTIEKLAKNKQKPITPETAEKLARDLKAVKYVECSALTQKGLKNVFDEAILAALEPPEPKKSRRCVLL
parameter: Kd (nM)
Numbers only, in nM.

Report measured Kd; entry is COc1ccc(C2CC(c3ccccc3)=NN2c2ccc(S(N)(=O)=O)cc2)cc1 (stereo unspecified)
16.7
